Please consider the recorded Ki for human ORL1 receptor (Homo sapiens, UniProt P41146) in what follows.
Just the number please, in nM, no unit attached.

molecule="O=C(O)C(Cc1ccccc1Cl)CN1C2CCC1CC1(C2)OCc2ccc(F)cc21 (stereo not shown)" units_label=nM measured_result=3.4
molecule="O=C(O)C(Cc1cc(O)ccc1Cl)CN1C2CCC1CC1(C2)OCCc2cc(F)ccc21 (stereo not shown)" units_label=nM measured_result=1.2
molecule="O=C(O)C(Cc1cc(O)ccc1Cl)CN1C2CCC1CC1(C2)OCc2ccc(F)cc21 (stereo not shown)" units_label=nM measured_result=3.3

Moving on to the next molecule.
Exam item: Query (molecule): O=C(O)C(Cc1ccccc1Cl)CN1C2CCC1CC1(C2)OCCc2cc(F)ccc21 (stereo not shown) ; field requested: Ki
Marked response: 1.3
